Hey, just so you know, these numbers are from patent US8586611B2.

System: Pseudoperonospora cubensis
protocol_details: Test A: cucumber downy mildew, spray the day before inoculation (disease rating, 100 = 100% disease control)
Assay type: in vivo
condition_context: spray the day before inoculation, compounds without asterisk (not 40 or 10 ppm)
Measured Test A disease rating (100 = 100% disease control, 0 = no disease control), listed per entry for reference.
A number alone suffices; assume %.

> print(dat)
                                 mol.smiles  units.text  value.observed
1  C[C@H](c1ccccc1)N(C)C(=O)c1csc(C2CCN(C(=O)Cc3cccc(OC(F)(F)F)c3)CC2)n1           %              97
2  C[C@H](c1ccccc1)N(C)C(=O)c1csc(C2CCN(C(=O)Cc3cc(F)cc(C(F)(F)F)c3)CC2)n1           %              98
3  Cc1cc(C)cc(CC(=O)N2CCC(c3nc(C(=O)N(C)[C@H](C)c4ccccc4)cs3)CC2)c1           %             100
4  Cc1ccc(C)c(CC(=O)N2CCC(c3nc(C(=O)N(C)[C@H](C)c4ccccc4)cs3)CC2)c1           %             100
5  Cc1cccc(CC(=O)N2CCC(c3nc(C(=O)N(C)[C@H](C)c4ccccc4)cs3)CC2)c1           %             100

Inquiry: Using the record for C[C@H](c1ccccc1)N(C)C(=O)c1csc(C2CCN(C(=O)Cc3ccc(F)c(F)c3)CC2)n1 , report its Test A disease rating (100 = 100% disease control, 0 = no disease control).
Reply text: 0

Inquiry: Could you do the same for C[C@H](c1ccccc1)N(C)C(=O)c1csc(C2CCN(C(=O)Cc3cc(F)ccc3F)CC2)n1 , please?
Reply text: 97

----------
System: Phytophthora infestans
protocol_details: whole plant or invertebrate
Format: in vivo
condition_context: tomato late blight; spray 17 h after inoculation; compounds without asterisk (not 40 or 10 ppm)
parameter: Test D disease rating (100 = 100% disease control, 0 = no disease control) (%)
A number alone suffices; assume %.

> print(dat)
                                   compound  value.observed
1  Cc1cccnc1CC(=O)N1CCC(c2nc(C(=O)N(C)[C@@H]3CCCc4ccccc43)cs2)CC1              98
2  Cc1cccc(CC(=O)N2CCC(c3nc(C(=O)N(C)Cc4ccncc4)cs3)CC2)c1               0
3  CC(c1ccccn1)N(C)C(=O)c1csc(C2CCN(C(=O)Cc3cccc(C(F)(F)F)c3)CC2)n1 (stereo not drawn)              72

Inquiry: Using the record for Cc1ccc(C)c(CC(=O)N2CCC(c3nc(C(=O)N(C)C(C)(C)Cc4ccc(F)cc4)cs3)CC2)c1 , report its Test D disease rating (100 = 100% disease control, 0 = no disease control).
Reply text: 0

Inquiry: Could you do the same for C[C@H](c1ccccc1)N(C)C(=O)c1csc(C2CCN(C(=O)Cn3cnc(C4CCCCC4)n3)CC2)n1 , please?
Reply text: 0

Inquiry: Could you do the same for Cc1ccc(C)c(CC(=O)N2CCC(c3nc(C(=O)N(C)C4CCc5ccccc54)cs3)CC2)c1 (stereo not drawn) , please?
Reply text: 99

Inquiry: Could you do the same for Cc1cc(C(F)(F)F)nn1CC(=O)N1CCC(c2nc(C(=O)N(C)C3CCCc4ccccc43)cs2)CC1 (stereo not drawn) , please?
Reply text: 99

Inquiry: Could you do the same for Cc1ccc(C)c(CC(=O)N2CCC(c3nc(C(=O)N(C)C4CCCc5c4ccc4ccccc54)cs3)CC2)c1 (stereo not drawn) , please?
Reply text: 0

----------
Test system: Phytophthora infestans
protocol_details: whole plant or invertebrate
Assay type: in vivo
condition_context: tomato late blight; spray the day before inoculation; compounds without asterisk (not 40 or 10 ppm)
parameter: Test C disease rating (100 = 100% disease control, 0 = no disease control)
For clarity, give the value followed by its unit.

Inquiry: Using the record for Cc1ccc(C)c(CC(=O)N2CCC(c3nc(C(=O)N(C)[C@H]4CCc5ccccc54)cs3)CC2)c1 [compound 131] , report its Test C disease rating (100 = 100% disease control, 0 = no disease control).
Reply text: 55%

Inquiry: Could you do the same for Cc1ccc(C)c(CC(=O)N2CCC(c3nc(C(=O)N(C)[C@H]4CCCc5ccccc54)cs3)CC2)c1 [compound 133] , please?
Reply text: 53%

Inquiry: Could you do the same for C[C@H](c1ccccc1)N(C)C(=O)c1coc(N2CCN(C(=O)Cc3cccc(C(F)(F)F)c3)CC2)n1 [compound 55] , please?
Reply text: 100%

Inquiry: Could you do the same for Cc1nc(C)n(CC(=O)N2CCC(c3nc(C(=O)N(C)[C@H](C)c4ccccc4)cs3)CC2)n1 [compound 120] , please?
Reply text: 51%

Inquiry: Could you do the same for Cc1ccc(C)c(CC(=O)N2CCC(c3nc(C(=O)N(C)C4CCCCc5ccccc54)cs3)CC2)c1 (stereo not shown) [compound 129] , please?
Reply text: 50%

Inquiry: Could you do the same for CCCC(c1ccccc1)N(C)C(=O)c1csc(C2CCN(C(=O)Cc3cc(C)ccc3C)CC2)n1 (stereo not shown) [compound 82] , please?
Reply text: 97%

Inquiry: Could you do the same for COC(=O)C1CC(N(C)C(=O)c2csc(C3CCN(C(=O)Cn4nc(C(F)(F)F)cc4C)CC3)n2)c2ccccc21 (stereo not shown) [compound 229] , please?
Reply text: 100%

----------
System: Phytophthora infestans
protocol_details: whole plant or invertebrate
Assay type: in vivo
condition_context: tomato late blight; spray 17 h after inoculation; tested at 40 ppm
Measured Test D disease rating (100 = 100% disease control, 0 = no disease control), listed per entry for reference.
A number alone suffices; assume %.

Example results:
> print(dat)
                                   compound  value.observed
1  Cc1cc(C(F)(F)F)nn1CC(=O)N1CCC(c2nc(C(=O)N(C)C3CCC(C)(C)c4ccccc43)cs2)CC1 (centres unmarked) [compound 199]              99
2  Cc1cc(C(F)(F)F)nn1CC(=O)N1CCC(c2nc(C(=O)N(C)C3c4ccccc4CCC3O)cs2)CC1 (centres unmarked) [compound 194]              74
3  COC1CCC(N(C)C(=O)c2csc(C3CCN(C(=O)Cn4nc(C(F)(F)F)cc4C)CC3)n2)c2ccccc21 (centres unmarked) [compound 213]              99
4  CN(C(=O)c1csc(C2CCN(C(=O)Cn3nc(C(F)(F)F)cc3C(C)(C)C)CC2)n1)[C@@H]1CCCc2ccccc21 [compound 239]               0

Consider the additional compound presented here.
Inquiry: Using the record for CC(=O)OC1CCC(N(C)C(=O)c2csc(C3CCN(C(=O)Cn4nc(C(F)(F)F)cc4C)CC3)n2)c2ccccc21 (centres unmarked) [compound 212] , report its Test D disease rating (100 = 100% disease control, 0 = no disease control).
Reply text: 99

----------
Test system: Phytophthora infestans
protocol_details: whole plant or invertebrate
Format: in vivo
condition_context: tomato late blight, sprayed 17 h after inoculation; tested at 10 ppm (**)
parameter: Test D disease rating (100 = 100% disease control, 0 = no disease control)
// response body must contain only the number

> print(dat)
                                   compound  value.observed
1  Cc1cc(Br)nn1CC(=O)N1CCC(c2nc(C(=O)N(C)[C@@H]3CCCc4ccccc43)cs2)CC1              99

Inquiry: Using the record for COc1ccccc1C(C)N(C)C(=O)c1csc(C2CCN(C(=O)Cn3nc(C(F)(F)F)cc3C)CC2)n1 (stereo not drawn) , report its Test D disease rating (100 = 100% disease control, 0 = no disease control).
Reply text: 0

Inquiry: Could you do the same for Cc1cc(C(F)(F)F)nn1CC(=O)N1C=CC(c2nc(C(=O)N(C)[C@@H]3CCCc4ccccc43)cs2)CC1 (stereo partly drawn) , please?
Reply text: 88

Inquiry: Could you do the same for Cc1cc(C(F)(F)F)nn1CC(=O)N1CCC(c2nc(C(=O)N3Cc4ccccc4C3C)cs2)CC1 (stereo not drawn) , please?
Reply text: 0

Inquiry: Could you do the same for Cc1cc(Cl)nn1CC(=O)N1CCC(c2nc(C(=O)N(C)[C@@H]3CCCc4ccccc43)cs2)CC1 , please?
Reply text: 99

Inquiry: Could you do the same for Cc1cc(C(F)(F)F)nn1CC(=O)N1CCC(c2nc(C(=O)N(C)C(C)c3ccccc3Br)cs2)CC1 (stereo not drawn) , please?
Reply text: 85

----------
System: Phytophthora infestans
protocol_details: whole plant or invertebrate
Assay type: in vivo
condition_context: Phytophthora infestans, in Solanum lycopersicum, 144 h, read-out: Test C disease rating (100 = 100% disease control, 0 = no disease control)
parameter: pest or weed control at 40 ppm (%)
A number alone suffices; assume %.

Example results:
> print(dat)
                                   compound  value.observed
1  Cc1cc(C(F)(F)F)nn1CC(=O)N1CCN(c2nc(C(=O)N(C)[C@@H]3CCCc4ccccc43)cs2)CC1             100
2  Cc1cc(C(F)(F)F)nn1CC(=O)N1CCC(c2nc(C(=O)N(C)[C@@H]3CC[C@@H](O)c4ccccc43)cs2)CC1 (racemic)             100
3  Cc1cc(C(F)(F)F)nn1CC(=O)N1CCC(c2nc(C(=O)N(C)[C@@H]3CCCc4ccccc43)co2)CC1             100
4  CC[C@H](c1ccccc1)N(C)C(=O)c1coc(C2CCN(C(=O)Cn3nc(C(F)(F)F)cc3C)CC2)n1             100
5  Cc1ccc(C)c(CC(=O)N2CCC(c3nc(C(=O)N(C)[C@@H]4CCCc5ccccc54)co3)CC2)c1             100

Inquiry: Using the record for CN(C(=O)c1csc(C2CCN(C(=O)Cn3nc(C(F)(F)F)cc3Cl)CC2)n1)[C@@H]1CCCc2ccccc21 , report its pest or weed control at 40 ppm.
Reply text: 100

Inquiry: Could you do the same for CC[C@H](c1ccccc1)N(C)C(=O)c1coc(C2CCN(C(=O)Cc3cc(C)ccc3C)CC2)n1 , please?
Reply text: 100

Inquiry: Could you do the same for Cc1cc(C(F)(F)F)nn1CC(=O)N1CCC(c2nc(C(=O)N(C)C3c4ccccc4CC3C)cs2)CC1 (stereo not drawn) , please?
Reply text: 100
